// provenance: patent US20250064990A1

Assay: NBI-750142 concentration in cynomolgus monkey plasma by LC-MS/MS
Format: in vivo, cynomolgus monkeys (Macaca fascicularis)
Conditions: cynomolgus monkey, intravenous, 0.26 mg/kg, GC786, 0.26 mg/kg i.v.
Observed property: concentration at 60 min (ng/mL)
State just the number; it will be interpreted in ng/mL.

For the molecule shown here, `COc1cc2c(cc1OC)[C@H]1CN(C)[C@H](CC(C)(C)C)CN1CC2` , give the reported concentration at 60 min.
10.6

====

Assay: NBI-750142 concentration in cynomolgus monkey plasma by LC-MS/MS
Type: in vivo, cynomolgus monkeys (Macaca fascicularis)
Conditions: cynomolgus monkey, intravenous, 0.084 mg/kg, EC865, 0.084 mg/kg i.v.
Observed property: concentration at 60 min (ng/mL)
Enter your answer as a number in ng/mL; do not include the unit.

Look up concentration at 60 min for this molecule: COc1cc2c(cc1OC)[C@H]1CN(C)[C@H](CC(C)(C)C)CN1CC2 [NBI-750142]
6.04
